- Tested on: synthesis of LTB4 in human whole blood
- measurement-notes: human whole blood (HWB) assay, LTB4 production inhibition after calcimycin stimulation
- Type: cell-based
- experimental-parameters: heparinized human whole blood, calcimycin 20 μM, plasma LTB4 by HTRF
pIC50: −log10 of the molar value.
Class yes (1): pIC50 at least 7. Class no (0): pIC50 below 7.

Please review the following examples before continuing.
{"molecule": "CNC(=O)C1CCN(Cc2ccc(C3COc4ccccc4O3)cc2)CC1 (racemic) [Example 25]", "experimental-target": "synthesis of LTB4 in human whole blood", "discrete-label": "no (0)"}
{"molecule": "CC(=O)N1CC2CN(Cc3ccc([C@H]4COc5cccnc5O4)cc3)CC2C1 (stereo partly drawn) [Example 270]", "experimental-target": "synthesis of LTB4 in human whole blood", "discrete-label": "yes (1)"}
{"molecule": "CC(C)(O)C(=O)NCC1CCN(Cc2ccc([C@H]3COc4cccnc4O3)cc2)CC1 [Example 262]", "experimental-target": "synthesis of LTB4 in human whole blood", "discrete-label": "no (0)"}
{"molecule": "NC(=O)NCC1CCN(Cc2ccc([C@H]3COc4cccnc4O3)cc2)CC1 [Example 283]", "experimental-target": "synthesis of LTB4 in human whole blood", "discrete-label": "no (0)"}
{"molecule": "c1cnc2c(c1)OCC(c1ccc(CN3CCOCC3)cc1)O2 (racemic) [Example 18]", "experimental-target": "synthesis of LTB4 in human whole blood", "discrete-label": "no (0)"}
{"molecule": "COC1CCN(Cc2ccc([C@H]3COc4cccnc4O3)cc2)C1 (stereo partly drawn) [Example 168]", "experimental-target": "synthesis of LTB4 in human whole blood", "discrete-label": "yes (1)"}

Check the entry Nc1nc2c(s1)CN(Cc1ccc([C@H]3COc4cccnc4O3)cc1)CC2 [Example 258] : does pIC50 equal or exceed 7?
no (0)

Check the entry COCC(=O)NC1CCN(Cc2ccc([C@H]3COc4cccnc4O3)cc2)CC1 [Example 252] : does pIC50 equal or exceed 7?
yes (1)

Check the entry NC(=O)CN1CCCC12CCN(Cc1ccc([C@H]3COc4ccccc4O3)cc1)C2 (stereo partly drawn) [Example 123] : does pIC50 equal or exceed 7?
no (0)

Check the entry CC1(O)CCN(Cc2ccc([C@H]3COc4cccnc4O3)cc2)CC1 [Example 276] : does pIC50 equal or exceed 7?
no (0)

---

Parameter pIC50: see the listing below.
- experimental-target: human LTA4 hydrolase (Homo sapiens)
- measurement-notes: LTA4H Enzyme assay (cleavage of Arg-AMC, fluorescence)
- Format: biochemical
- experimental-parameters: LTA4H Enzyme 1 nM, Arg-AMC substrate 50 μM, room temperature 1 h, fluorescence; read-out: IC50 values of LTA4H Enzyme assay
# log scale: pIC50 equals minus log10 of the concentration in mol/L

Give the measured pIC50 for O=C(O)C1CCN(Cc2ccc([C@H]3COc4ccccc4O3)cc2)C1 (stereo partly drawn)
9.22

Give the measured pIC50 for OC1CCCN(Cc2ccc([C@H]3COc4ccccc4O3)cc2)C1 (stereo partly drawn)
8.85

Give the measured pIC50 for c1ccc2c(c1)OCC(c1ccc(CN3CCCCCC3)cc1)O2 (racemic)
9.09

---

Parameter pIC50: see the listing below.
- Test system: synthesis of LTB4 in human whole blood
- measurement-notes: human whole blood (HWB) assay, LTB4 production inhibition after calcimycin stimulation
- Format: cell-based
- experimental-parameters: heparinized human whole blood, calcimycin 20 μM, plasma LTB4 by HTRF
# log scale: pIC50 equals minus log10 of the concentration in mol/L

{"molecule": "CCOC(=O)c1nnc2n1CCN(Cc1ccc([C@H]3COc4cccnc4O3)cc1)C2", "observed-measurement": 6.85}
{"molecule": "O=C1CCCN1CC1CCN(Cc2ccc([C@H]3COc4ccccc4O3)cc2)CC1", "observed-measurement": 7.02}
{"molecule": "CNC(=O)c1cn2c(n1)CN(Cc1ccc([C@H]3COc4cccnc4O3)cc1)CC2", "observed-measurement": 6.92}
{"molecule": "CC1CCCCN1Cc1ccc([C@H]2COc3ccccc3O2)cc1 (some centres unmarked)", "observed-measurement": 7.09}

Give the measured pIC50 for CCN(Cc1ccc([C@H]2COc3ccccc3O2)cc1)C1CCCC1
7.12

---

- experimental-target: human LTA4 hydrolase (Homo sapiens, UniProt P09960)
- Sequence (P09960 whole entry): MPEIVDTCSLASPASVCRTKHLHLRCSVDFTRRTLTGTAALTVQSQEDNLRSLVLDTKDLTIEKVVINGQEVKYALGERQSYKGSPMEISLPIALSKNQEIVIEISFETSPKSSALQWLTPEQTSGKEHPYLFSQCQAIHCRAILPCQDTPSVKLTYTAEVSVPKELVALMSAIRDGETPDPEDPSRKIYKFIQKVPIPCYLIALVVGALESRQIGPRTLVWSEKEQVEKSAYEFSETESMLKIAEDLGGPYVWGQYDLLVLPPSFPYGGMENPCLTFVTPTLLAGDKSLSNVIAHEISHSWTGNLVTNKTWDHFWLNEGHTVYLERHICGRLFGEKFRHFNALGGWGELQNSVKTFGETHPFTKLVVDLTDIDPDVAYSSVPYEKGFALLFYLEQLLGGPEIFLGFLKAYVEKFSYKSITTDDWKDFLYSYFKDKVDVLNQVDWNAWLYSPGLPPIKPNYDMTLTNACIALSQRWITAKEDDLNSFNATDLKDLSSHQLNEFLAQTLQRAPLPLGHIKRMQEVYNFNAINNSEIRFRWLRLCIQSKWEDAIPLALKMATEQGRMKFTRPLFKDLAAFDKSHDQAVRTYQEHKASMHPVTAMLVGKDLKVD
- measurement-notes: LTA4H Enzyme assay (cleavage of Arg-AMC, fluorescence)
- Type: biochemical
- experimental-parameters: LTA4H Enzyme 1 nM, Arg-AMC substrate 50 μM, room temperature 1 h, fluorescence; read-out: IC50 values of LTA4H Enzyme assay
- Experimental: The compounds of the invention are assessed for the ability to interact with human LTA4 hydrolase in an enzymatic assay that measures the ability of the enzyme to cleave the peptide bond of arginyl-aminomethylcoumarin (Arg-AMC). […] The formation of product is assessed by measuring the fluorescence of aminomethylcoumarin product (excitation wavelength 380 nm/emission wavelength 460 nm).
Parameter IC50: see the listing below.
Write the answer as a number in nM, unit excluded.

In the examples that follow, each entry is paired with its recorded IC50.
{"molecule": "CCN(CC)Cc1ccc(C2COc3ccccc3O2)cc1 (racemic)", "experimental-target": "human LTA4 hydrolase (Homo sapiens, UniProt P09960)", "IC50 [nM]": 0.9}
{"molecule": "COC1CCN(Cc2ccc(C3COc4ccccc4O3)cc2)C1 (racemic)", "experimental-target": "human LTA4 hydrolase (Homo sapiens, UniProt P09960)", "IC50 [nM]": 1.73}

Please look at OC[C@H]1CCCC[C@H]1NCc1ccc([C@H]2COc3ccccc3O2)cc1 and tell me its recorded IC50 on human LTA4 hydrolase (Homo sapiens, UniProt P09960).
0.69

Please look at CC1(O)CCN(Cc2ccc([C@H]3COc4cccnc4O3)cc2)CC1 and tell me its recorded IC50 on human LTA4 hydrolase (Homo sapiens, UniProt P09960).
1.2

Please look at CC1COCCN1Cc1ccc([C@H]2COc3ccccc3O2)cc1 (stereo partly shown) and tell me its recorded IC50 on human LTA4 hydrolase (Homo sapiens, UniProt P09960).
1.35

Please look at CC(C)NCc1ccc([C@H]2COc3ccccc3O2)cc1 and tell me its recorded IC50 on human LTA4 hydrolase (Homo sapiens, UniProt P09960).
1.88

Please look at CS(=O)(=O)N1CCN(Cc2ccc([C@H]3COc4cccnc4O3)cc2)CC1 and tell me its recorded IC50 on human LTA4 hydrolase (Homo sapiens, UniProt P09960).
0.87

---

- experimental-target: UniProtKB P09960
- measurement-notes: LTA4H Enzyme assay (cleavage of Arg-AMC, fluorescence)
- Format: biochemical
- experimental-parameters: LTA4H Enzyme 1 nM, Arg-AMC substrate 50 μM, room temperature 1 h, fluorescence; read-out: IC50 values of LTA4H Enzyme assay
observable: IC50 (nM)
Write the answer as a number in nM, unit excluded.

Give the measured IC50 for O=C1NC(=O)C2(CCN(Cc3ccc(C4COc5ccccc5O4)cc3)CC2)N1 (racemic)
0.26

Give the measured IC50 for CC(=O)NC1CCN(Cc2ccc([C@H]3COc4ccccc4O3)cc2)CC1
0.35

Give the measured IC50 for O=S1(=O)CCCN(Cc2ccc([C@H]3COc4cccnc4O3)cc2)CC1
0.7

Give the measured IC50 for CS(=O)(=O)NC[C@@H]1[C@H]2CN(Cc3ccc([C@H]4COc5cccnc5O4)cc3)C[C@@H]12
0.49

Give the measured IC50 for NC(=O)C1CCN(Cc2ccc([C@H]3COc4cccnc4O3)cc2)CC1
0.19

---

- System: synthesis of LTB4 in human whole blood
- measurement-notes: human whole blood (HWB) assay, LTB4 production inhibition after calcimycin stimulation
- Format: cell-based
- experimental-parameters: heparinized human whole blood, calcimycin 20 μM, plasma LTB4 by HTRF
observable: pIC50
# log scale: pIC50 equals minus log10 of the concentration in mol/L

In the examples that follow, each entry is paired with its recorded pIC50.
{"compound": "NC(=O)N1CCN(Cc2ccc([C@H]3COc4cccnc4O3)cc2)CC1", "experimental-target": "synthesis of LTB4 in human whole blood", "pIC50": 7.00}
{"compound": "CC(=O)N[C@H]1C[C@H]2CC[C@@H](C1)N2Cc1ccc([C@H]2COc3cccnc3O2)cc1", "experimental-target": "synthesis of LTB4 in human whole blood", "pIC50": 7.14}
{"compound": "FC1CCN(Cc2ccc([C@H]3COc4cccnc4O3)cc2)CC1", "experimental-target": "synthesis of LTB4 in human whole blood", "pIC50": 7.02}
{"compound": "CCCCN(Cc1ccc(C(=O)O)cc1)Cc1ccc([C@H]2COc3ccccc3O2)cc1", "experimental-target": "synthesis of LTB4 in human whole blood", "pIC50": 7.02}

Attention now turns to another entry.
Give the measured pIC50 for COCC(=O)NC1CCN(Cc2ccc([C@H]3COc4ccccc4O3)cc2)CC1
6.83
